# System: Radical scavenging activity
# assay_remarks: Antioxidant activity of the compound assessed as DPPH radical scavenging activity
# Format: functional
Listing of entries alongside the reported IC50.
Numeric only. Scale: µM

O=C1[C@@H]2CCC[C@@H]1[C@H](c1ccc(O)c(O)c1)N[C@@H]2c1ccc(O)c(O)c1; 26.1

Which value of IC50 has been reported for `Cc1c(C)c2c(c(C)c1O)CC[C@@](C)(CCC[C@H](C)CCC[C@H](C)CCCC(C)C)O2` in the records? 59

And the next one, `Oc1ccccc1O` ? 36

And the next one, `COc1cc(/C=C/C(=O)CC(=O)/C=C/c2ccc(O)c(OC)c2)ccc1O` ? 35.1

----------
# Tested on: Radical scavenging activity
# assay_remarks: Antioxidant activity of the compound assessed as DPPH radical scavenging activity at 50 uM
# Format: functional
Calls of active or inactive are those of the source. The calls are words filed in the database; no cut-off is given here.
measurement_name: Activity

O=C1[C@@H]2CCC[C@@H]1[C@H](c1ccc(O)c(O)c1)N[C@@H]2c1ccc(O)c(O)c1; 80%
O=C1O[C@H]([C@@H](O)CO)C(O)=C1O; Active
Cc1c(C)c2c(c(C)c1O)CC[C@@](C)(CCC[C@H](C)CCC[C@H](C)CCCC(C)C)O2 [ALPHA-TOCOPHEROL]; Active
COc1cc([C@H]2N[C@@H](c3ccc(O)c(OC)c3)[C@H]3CCC[C@H]2C3=O)ccc1O; 80%
